Molecular target: human 5-HT1A receptor (Homo sapiens, UniProt P08908)
Sequence (P08908 whole entry): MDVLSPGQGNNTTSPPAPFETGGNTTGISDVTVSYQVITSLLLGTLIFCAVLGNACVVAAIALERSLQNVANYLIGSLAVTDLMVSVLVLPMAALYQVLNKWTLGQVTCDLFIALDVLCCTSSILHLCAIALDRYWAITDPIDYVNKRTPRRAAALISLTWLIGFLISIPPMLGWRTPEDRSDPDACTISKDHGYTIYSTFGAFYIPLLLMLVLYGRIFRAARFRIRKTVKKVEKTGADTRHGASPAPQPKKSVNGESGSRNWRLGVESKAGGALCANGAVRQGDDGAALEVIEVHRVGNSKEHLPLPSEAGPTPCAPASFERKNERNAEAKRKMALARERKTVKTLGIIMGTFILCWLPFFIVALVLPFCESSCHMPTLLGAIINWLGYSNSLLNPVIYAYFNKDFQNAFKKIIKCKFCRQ
Experiment: Human 5-HT1A functional FLIPR assay (agonist mode)
Type: cell-based
Parameters: expressed in transfected cells
Conditions: h5-HT1A, curve fitting with activation (%) @ 10 mM with RFU (footnote)
Please enter class 1 where RFU@10 μM is greater than or equal to 100 RFU, and class 0 where it is lower.

# count of solved cases: 3
Compound: CN(C)CCc1c[nH]c2cccc(O)c12 [Psilocin, 4-hydroxy-N,N-dimethyltryptamine, reference compound]
Qualitative label: class 1
--
Compound: CN1CCC[C@@H]1Cc1c[nH]c2cccc(O)c12 [Compound 10]
Qualitative label: class 1
--
Compound: CN1CCC[C@@H]1Cc1c[nH]c2cccc(OC(=O)CCCC(=O)Oc3cccc4[nH]cc(C[C@H]5CCCN5C)c34)c12 [Compound I-13]
Qualitative label: class 0

Given the entry [2H]C([2H])(c1c[nH]c2cccc(O)c12)[C@H]1CCCN1C([2H])([2H])[2H] [Compound 13] , answer whether its RFU@10 μM meets or surpasses 100 RFU. class 1

Now consider [2H]C([2H])(c1c[nH]c2cccc(OC(=O)CCCC(=O)Oc3cccc4[nH]cc(C([2H])([2H])[C@H]5CCCN5C([2H])([2H])[2H])c34)c12)[C@H]1CCCN1C([2H])([2H])[2H] [Compound I-22] . class 1
